assay: AUC in rat at 10 mg/kg, po administered as single dose by LC-MS/MS analysis; assay type: ADME, organism-based; set-up: dose 10 mg/kg, route oral; details: plasma
VALUE_KIND: AUC (ng·h/mL)
One number for each entry, in ng·h/mL.

Check out these entries, answers already filled in.
So what does the record say about AUC for COc1ccc2c(c1)O[C@H](c1ccc(OCCN3CCCCC3)cc1)C1=C2CCOc2cc(O)ccc21 ? 6920

So what does the record say about AUC for Oc1ccc2c(c1)O[C@H](c1ccc(OCCN3CCCCC3)cc1)C1=C2CCOc2ccccc21 ? 1130

So what does the record say about AUC for COc1ccc2c(c1)OCCC1=C2[C@@H](c2ccc(OCCN3CCCCC3)cc2)Oc2cc(O)ccc21 ? 6730

So what does the record say about AUC for Oc1ccc2c(c1)O[C@H](c1ccc(OCCN3CCSCC3)cc1)C1=C2CCOc2cc(O)ccc21 ? 1530

So what does the record say about AUC for COc1ccc2c(c1)O[C@H](c1ccc(OCCN3CCCCC3)cc1)C1=C2CCOc2cc(OC)ccc21 ? 2270

Further cases:
So what does the record say about AUC for Oc1ccc2c(c1)O[C@H](c1ccc(OCCN3CCCCC3)cc1)C1=C2CCOc2cc(O)ccc21 ? 1010

====

species: Rattus norvegicus; assay: animal or person; assay type: functional; conditions: Uterus, 72 h, route oral
Provide the reported inhibition in vivo at 1 mg/kg of each item.
Answers are plain numbers, in %.

Batch lookup, inhibition in vivo at 1 mg/kg per entry.
1. Oc1ccc2c(c1)OCCC1=C2[C@H](c2ccc(OCCN3CCCCC3)cc2)Oc2ccccc21
2. Oc1ccc2c(c1)O[C@@H](c1ccc(OCCN3CCCCC3)cc1)C1=C2CCOc2cc(O)ccc21
3. CCN(CC)CCOc1ccc([C@H]2Oc3ccccc3C3=C2c2ccc(O)cc2OCC3)cc1
4. Oc1ccc2c(c1)O[C@H](c1ccc(OCCCN3CCCCC3)cc1)C1=C2CCOc2cc(O)ccc21
5. Oc1ccc2c(c1)OCCC1=C2[C@H](c2ccc(OCCN3CCCCCC3)cc2)Oc2ccccc21
6. Oc1ccc2c(c1)OC(c1ccc(OCCN3CCCCC3)cc1)C1=C2CCOc2cc(O)ccc21 (stereo not drawn)

1: 20; 2: 88; 3: 80; 4: 23; 5: 28; 6: 77

Batch lookup, inhibition in vivo at 1 mg/kg per entry.
1. Oc1ccc2c(c1)O[C@@H](c1cccc(OCCN3CCCCC3)c1)C1=C2CCOc2cc(O)ccc21
2. Oc1ccc2c(c1)OCCC1=C2[C@@H](c2ccc(OCCN3CCCCCC3)cc2)Oc2ccccc21
3. OCCOc1ccc(C2Oc3cc(O)ccc3C3=C2c2ccc(O)cc2OCC3)cc1 (stereo not drawn)
4. CN(C)CCOc1ccc([C@H]2Oc3ccccc3C3=C2c2ccc(O)cc2OCC3)cc1
5. Oc1ccc2c(c1)O[C@@H](c1ccc(OCCN3CCCC3)cc1)C1=C2CCOc2cc(O)ccc21
6. COc1ccc2c(c1)OCCC1=C2[C@@H](c2ccc(OCCN3CCCCC3)cc2)Oc2cc(O)ccc21

1. 0
2. 110
3. 0
4. 55
5. 20
6. 130

Batch lookup, inhibition in vivo at 1 mg/kg per entry.
1. CN(C)CCOc1ccc([C@H]2Oc3cc(O)ccc3C3=C2c2ccc(O)cc2OCC3)cc1
2. COc1ccc2c(c1)O[C@@H](c1ccc(OCCN3CCCCC3)cc1)C1=C2CCOc2cc(OC)ccc21
3. Oc1ccc2c(c1)O[C@H](c1ccc(OCCN3CCCCC3)cc1)C1=C2CCOc2cc(O)ccc21
4. COc1ccc2c(c1)O[C@@H](c1ccc(OCCN3CCCCC3)cc1)C1=C2CCOc2cc(O)ccc21
5. CN(C)CCOc1ccc([C@H]2Oc3cc(O)ccc3C3=C2c2ccccc2OCC3)cc1

1. 25
2. 7
3. 135
4. 12
5. 23

So what does the record say about inhibition in vivo at 1 mg/kg for CN1CCN(CCOc2ccc([C@H]3Oc4cc(O)ccc4C4=C3c3ccc(O)cc3OCC4)cc2)CC1 ? 30

====

Target: Estrogen receptor (Homo sapiens, UniProt P03372)
Sequence (P03372 whole entry): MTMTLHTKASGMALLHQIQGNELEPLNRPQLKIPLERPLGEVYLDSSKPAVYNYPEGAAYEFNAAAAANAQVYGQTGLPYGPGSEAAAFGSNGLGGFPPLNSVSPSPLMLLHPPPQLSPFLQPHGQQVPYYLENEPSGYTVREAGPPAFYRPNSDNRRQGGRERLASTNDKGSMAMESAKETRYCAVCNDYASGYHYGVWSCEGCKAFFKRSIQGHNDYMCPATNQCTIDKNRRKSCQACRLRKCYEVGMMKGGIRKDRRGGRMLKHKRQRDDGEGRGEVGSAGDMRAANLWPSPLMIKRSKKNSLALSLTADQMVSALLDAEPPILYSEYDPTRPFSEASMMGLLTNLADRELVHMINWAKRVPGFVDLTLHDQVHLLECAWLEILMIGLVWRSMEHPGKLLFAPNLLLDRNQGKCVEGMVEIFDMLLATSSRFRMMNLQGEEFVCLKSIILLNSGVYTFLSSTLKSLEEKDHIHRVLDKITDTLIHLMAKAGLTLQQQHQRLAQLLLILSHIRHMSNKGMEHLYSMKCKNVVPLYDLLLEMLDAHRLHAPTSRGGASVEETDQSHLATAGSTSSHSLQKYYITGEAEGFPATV
Test: Displacement of radiolabeled estrogen from estrogen receptor alpha by scintillation counting
VALUE_KIND: pIC50
One number for each entry, as −log10 of the molar value.

So what does the record say about pIC50 for O=C1CCC(=O)N1CCCOc1ccc([C@H]2Oc3cc(O)ccc3C3=C2c2ccc(O)cc2OCC3)cc1 ? 8.58

So what does the record say about pIC50 for Oc1ccc2c(c1)O[C@@H](c1cccc(OCCN3CCCCC3)c1)C1=C2CCOc2cc(O)ccc21 ? 6.72

So what does the record say about pIC50 for O=C1CCC(=O)N1CCOc1ccc([C@@H]2Oc3cc(O)ccc3C3=C2c2ccc(O)cc2OCC3)cc1 ? 8.21

Batch lookup, pIC50 per entry.
1. Oc1ccc2c(c1)OCCC1=C2[C@H](c2ccc(OCCN3CCCCCC3)cc2)Oc2ccccc21
2. COc1ccc2c(c1)OCCC1=C2[C@H](c2ccc(OCCN3CCCCC3)cc2)Oc2cc(O)ccc21
3. Oc1ccc2c(c1)O[C@H](c1ccc(OCCCN3CCCCC3)cc1)C1=C2CCOc2cc(O)ccc21
4. Oc1ccc2c(c1)OCCC1=C2[C@@H](c2ccc(OCCN3CCCCCC3)cc2)Oc2cc(F)ccc21
5. Oc1ccc2c(c1)O[C@H](c1ccc(OCCN3CCCC3)cc1)C1=C2CCOc2cc(O)ccc21
6. CN1CCN(CCOc2ccc([C@@H]3Oc4cc(O)ccc4C4=C3c3ccc(O)cc3OCC4)cc2)CC1

1. 8.35
2. 8.38
3. 7.66
4. 8.48
5. 8.92
6. 6.51

====

organism: Rattus norvegicus; assay: animal or person; assay type: functional; conditions: Uterus, 72 h, route oral
Label scheme for inhibition in vivo at 1 mg/kg: lower than 7% is 0 (no), 7% and above is 1 (yes).

Please check the record Oc1ccc2c(c1)O[C@H](c1ccc(OCCN3CCCCCC3)cc1)C1=C2CCOc2cc(O)ccc21 and state if its inhibition in vivo at 1 mg/kg is at or above 7%. 1 (yes)

Please check the record CC/C(=C(\c1ccccc1)c1ccc(OCCN(C)C)cc1)c1ccccc1 and state if its inhibition in vivo at 1 mg/kg is at or above 7%. 0 (no)

Please check the record O=C(O)CCOc1ccc([C@@H]2Oc3cc(O)ccc3C3=C2c2ccc(O)cc2OCC3)cc1 and state if its inhibition in vivo at 1 mg/kg is at or above 7%. 0 (no)

Please check the record O=C1CCC(=O)N1CCOc1ccc([C@@H]2Oc3cc(O)ccc3C3=C2c2ccc(O)cc2OCC3)cc1 and state if its inhibition in vivo at 1 mg/kg is at or above 7%. 0 (no)

Please check the record COc1ccc2c(c1)O[C@H](c1ccc(OCCN3CCCCC3)cc1)C1=C2CCOc2cc(O)ccc21 and state if its inhibition in vivo at 1 mg/kg is at or above 7%. 1 (yes)

Please check the record CC(C)N(CCOc1ccc([C@H]2Oc3cc(O)ccc3C3=C2c2ccc(O)cc2OCC3)cc1)C(C)C and state if its inhibition in vivo at 1 mg/kg is at or above 7%. 1 (yes)

Please check the record COC(=O)COc1ccc(C2Oc3cc(O)ccc3C3=C2c2ccc(O)cc2OCC3)cc1 (centres undefined) and state if its inhibition in vivo at 1 mg/kg is at or above 7%. 0 (no)

Please check the record O=C1CCC(=O)N1CCOc1ccc([C@H]2Oc3cc(O)ccc3C3=C2c2ccc(O)cc2OCC3)cc1 and state if its inhibition in vivo at 1 mg/kg is at or above 7%. 0 (no)

====

biological target: Estrogen receptor (Homo sapiens); experiment: Displacement of radiolabeled estrogen from estrogen receptor alpha by scintillation counting
pIC50: −log10 of the molar value.
Label scheme for pIC50: lower than 8 is no (0), 8 and above is yes (1).

Please check the record Oc1ccc2c(c1)O[C@H](c1ccc(OCCN3CCCCCC3)cc1)C1=C2CCOc2ccccc21 and state if its pIC50 is at or above 8. no (0)

Please check the record Oc1ccc2c(c1)O[C@@H](c1ccc(OCCCN3CCCCC3)cc1)C1=C2CCOc2cc(O)ccc21 and state if its pIC50 is at or above 8. no (0)

Please check the record Oc1ccc2c(c1)O[C@H](c1cccc(OCCN3CCSCC3)c1)C1=C2CCOc2cc(O)ccc21 and state if its pIC50 is at or above 8. no (0)

Please check the record O=C1CCC(=O)N1CCOc1ccc([C@H]2Oc3cc(O)ccc3C3=C2c2ccc(O)cc2OCC3)cc1 and state if its pIC50 is at or above 8. yes (1)

Please check the record Oc1ccc2c(c1)O[C@@H](c1ccc(OCCN3CCCCC3)cc1)C1=C2CCOc2cc(O)ccc21 and state if its pIC50 is at or above 8. yes (1)

Further cases:
Please check the record Oc1ccc2c(c1)OC(c1ccc(OCCN3CCCCC3)cc1)C1=C2CCCOc2cc(O)ccc21 (single isomer, unassigned; (+)) and state if its pIC50 is at or above 8. no (0)

Please check the record Oc1ccc2c(c1)O[C@H](c1ccc(OCCN3CCCCC3)cc1)C1=C2CCOc2ccccc21 and state if its pIC50 is at or above 8. no (0)
